Target: Dual specificity protein kinase CLK2 (Mus musculus, UniProt O35491)
Sequence (O35491 whole entry, the tested form may be a part): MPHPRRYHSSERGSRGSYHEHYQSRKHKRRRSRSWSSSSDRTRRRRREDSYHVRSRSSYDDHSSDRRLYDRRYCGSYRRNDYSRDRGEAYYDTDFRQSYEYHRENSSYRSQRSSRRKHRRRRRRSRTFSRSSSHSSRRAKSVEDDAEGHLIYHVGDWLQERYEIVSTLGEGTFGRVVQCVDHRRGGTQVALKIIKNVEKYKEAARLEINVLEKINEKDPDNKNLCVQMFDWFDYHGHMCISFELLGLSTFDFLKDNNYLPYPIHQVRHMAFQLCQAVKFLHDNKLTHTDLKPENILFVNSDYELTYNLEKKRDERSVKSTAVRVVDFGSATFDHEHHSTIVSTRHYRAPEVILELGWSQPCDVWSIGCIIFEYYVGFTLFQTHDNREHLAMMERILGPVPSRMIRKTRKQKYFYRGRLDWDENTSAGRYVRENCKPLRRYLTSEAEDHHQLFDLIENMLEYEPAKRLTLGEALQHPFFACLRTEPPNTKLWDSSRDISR
Experiment: Inhibition of mouse recombinant GST-fused CLK2 expressed in Escherichia coli using GRSRSRSRSRSR peptide as substrate incubated for 30 mins in presence of ATP by scintillation counting method
Each record here notes measured IC50.
Please respond with the number in nM and leave the unit unwritten.

CCNC1=N/C(=C\c2ccc3c(c2)OCO3)C(=O)N1
380

query: Reported IC50 for COc1cc(/C=C2\N=C(Nc3ccccc3)NC2=O)ccc1O : what is it?
result: 140

query: Reported IC50 for O=C1NC(Nc2ccc(O)c(F)c2)=N/C1=C\c1ccc2c(c1)OCO2 : what is it?
result: 120

query: Reported IC50 for Cc1ccc(NC2=N/C(=C\c3ccc4c(c3)OCO4)C(=O)N2)cc1 : what is it?
result: 1000

query: Reported IC50 for O=C1NC(N2CCN(c3ccc(F)cc3)CC2)=N/C1=C\c1ccc2c(c1)OCCO2 : what is it?
result: 10000

====

Molecular target: Cannabinoid receptor 1 (Homo sapiens, UniProt P21554)
Sequence (P21554 whole entry): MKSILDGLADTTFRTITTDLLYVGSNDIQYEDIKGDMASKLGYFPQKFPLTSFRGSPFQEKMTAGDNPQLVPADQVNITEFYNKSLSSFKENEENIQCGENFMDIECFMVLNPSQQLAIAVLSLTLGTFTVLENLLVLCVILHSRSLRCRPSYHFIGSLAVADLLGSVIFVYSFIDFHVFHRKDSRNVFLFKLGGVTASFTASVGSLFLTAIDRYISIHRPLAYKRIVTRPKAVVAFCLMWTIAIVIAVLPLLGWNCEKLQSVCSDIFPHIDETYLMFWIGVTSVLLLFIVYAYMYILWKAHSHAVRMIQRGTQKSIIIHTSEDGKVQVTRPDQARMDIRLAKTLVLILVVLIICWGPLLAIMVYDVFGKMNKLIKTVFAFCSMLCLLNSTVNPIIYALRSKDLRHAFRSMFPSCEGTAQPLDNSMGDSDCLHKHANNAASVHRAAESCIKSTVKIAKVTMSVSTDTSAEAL
Test: Antagonist activity at CP-55940-activated CB1 receptor (unknown origin) by beta-arrestin assay
Assay type: functional
Readout kind: pIC50
Would you please state pIC50, meaning minus log10 of the concentration in mol/L, as a bare number?

COc1cc(/C=C2\N=C(Nc3ccc(N4CCCCC4)cc3)NC2=O)ccc1O
6.53
O=C1NC(Nc2ccc(N3CCCCC3)cc2)=N/C1=C\c1ccc2c(c1)OCO2
7.04

query: Reported pIC50 for O=C1NC(Nc2ccccc2)=N/C1=C\c1cccc(F)c1 : what is it?
result: 6.04

query: Reported pIC50 for CCCCCCc1ccc(NC2=N/C(=C\c3ccc(O)c(OC)c3)C(=O)N2)cc1 : what is it?
result: 5.70

query: Reported pIC50 for COc1cc(/C=C2\N=C(Nc3ccccc3)NC2=O)ccc1O : what is it?
result: 5.33

====

Molecular target: Dual specificity tyrosine-phosphorylation-regulated kinase 2 (Homo sapiens, UniProt Q92630)
Sequence (Q92630 whole entry, the tested form may be a part): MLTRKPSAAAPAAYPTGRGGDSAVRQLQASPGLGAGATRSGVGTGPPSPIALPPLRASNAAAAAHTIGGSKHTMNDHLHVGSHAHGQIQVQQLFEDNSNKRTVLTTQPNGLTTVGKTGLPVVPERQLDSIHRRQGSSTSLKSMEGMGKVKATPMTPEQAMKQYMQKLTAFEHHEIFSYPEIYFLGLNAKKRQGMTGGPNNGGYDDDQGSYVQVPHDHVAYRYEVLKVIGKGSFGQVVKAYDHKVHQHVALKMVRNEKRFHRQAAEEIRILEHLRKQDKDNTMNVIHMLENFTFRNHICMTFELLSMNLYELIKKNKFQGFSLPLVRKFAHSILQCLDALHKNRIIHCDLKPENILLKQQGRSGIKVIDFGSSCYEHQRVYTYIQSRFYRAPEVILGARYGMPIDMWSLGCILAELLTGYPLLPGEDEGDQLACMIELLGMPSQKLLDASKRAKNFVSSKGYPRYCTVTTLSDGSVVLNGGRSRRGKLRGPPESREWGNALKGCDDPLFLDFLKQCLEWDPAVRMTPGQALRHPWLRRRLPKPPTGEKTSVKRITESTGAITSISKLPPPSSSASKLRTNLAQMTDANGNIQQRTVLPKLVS
Assay: Inhibition of GST-fused human recombinant DYRK2 expressed in Escherichia coli using GRSRSRSRSRSR peptide as substrate incubated for 30 mins in presence of ATP by scintillation counting method
pIC50: −log10 of the molar value.
Binary classification by pIC50, with 6 as an inclusive lower bound for condition met; all other cases are condition not met.

Use the examples below as a reference point.
O=C1NC(Nc2cccc(F)c2)=N/C1=C\c1ccc2c(c1)OCO2
condition met
CCCNC1=N/C(=C\c2ccc3c(c2)OCO3)C(=O)N1CCC
condition not met
CSC1=N/C(=C\c2ccc3c(c2)OCO3)C(=O)N1
condition met
COc1ccc(/C=C2\N=C(Nc3ccccc3)NC2=O)cc1O
condition not met
CCSC1=N/C(=C\c2ccc3c(c2)OCO3)C(=O)N1C
condition met

query: Is pIC50 for O=C1NC(Nc2ccccc2)=N/C1=C\c1ccc2c(c1)CCO2 at or above 6?
result: condition met

query: Is pIC50 for CCCNC1=N/C(=C\c2ccc3c(c2)OCO3)C(=O)N1 at or above 6?
result: condition met

query: Is pIC50 for O=C1NC(Nc2ccccc2)=N/C1=C\c1ccc2c(c1)OCCCO2 at or above 6?
result: condition not met

query: Is pIC50 for O=C1N=C(Nc2ccccc2)S/C1=C\c1ccc2c(c1)OCO2 at or above 6?
result: condition not met

query: Is pIC50 for C/C(=C1/N=C(Nc2ccccc2)NC1=O)c1ccc2c(c1)OCO2 at or above 6?
result: condition not met
